Biological target: Pyrobest DNA polymerase (Pyrococcus sp.)
Test: Inhibitory activity against Pyrobest DNA polymerase.
pIC50: −log10 of the molar value.
Parameter Measured: pIC50

Here is how some molecules turned out for pIC50.
>>> endpoint_result("O=P(O)(O)OP(=O)(O)OP(=O)(O)OCC1O[C@@H](c2ccc(O)c(O)c2)CC1O (stereo not given in full)")
3.30
>>> endpoint_result("O=P(O)(O)OP(=O)(O)OP(=O)(O)OCC1O[C@@H](c2ccccc2O)CC1O (stereo not given in full)")
2.85

a. O=P(O)(O)OP(=O)(O)OP(=O)(O)OCC1O[C@@H](c2ccc(O)cc2)CC1O (stereo not given in full)
b. O=P(O)(O)OP(=O)(O)OP(=O)(O)OCC1O[C@@H](c2cccc(O)c2)CC1O (stereo not given in full)
// query Hi, I'm comparing a with b and wondering which one has the bigger number for pIC50. Any idea? // output: label of the selected item
// result a

###

Molecular target: Nucleic Acid
Test: Inhibitory activity against LA-Taq DNA polymerase
Type: nucleic-acid assay, Thermus aquaticus
Parameter Measured: IC50 (mM)

>>> endpoint_result("O=P(O)(O)OP(=O)(O)OP(=O)(O)OCC1O[C@@H](c2cccc(O)c2)CC1O (stereo not given in full)")
3.1

1. O=P(O)(O)OP(=O)(O)OP(=O)(O)OCC1O[C@@H](c2ccc(O)c(O)c2)CC1O (stereo not given in full)
2. O=P(O)(O)OP(=O)(O)OP(=O)(O)OCC1O[C@@H](c2ccc(O)cc2)CC1O (stereo not given in full)
3. O=P(O)(O)OP(=O)(O)OP(=O)(O)OCC1O[C@@H](c2ccccc2O)CC1O (stereo not given in full)
// query Rank ascending by IC50. To answer, write out the labels according to the requested order.
// result 1, 3, 2

###

Target: Nucleic Acid
Test: Inhibitory activity against Pfu DNA polymerase.
Type: nucleic-acid assay, Pyrococcus furiosus
pIC50: −log10 of the molar value.
Parameter Measured: pIC50

Illustrative cases are given below, each with its answer.
>>> endpoint_result("O=P(O)(O)OP(=O)(O)OP(=O)(O)OCC1O[C@@H](c2ccccc2O)CC1O (stereo not given in full)")
3.10
>>> endpoint_result("O=P(O)(O)OP(=O)(O)OP(=O)(O)OCC1O[C@@H](c2ccc(O)cc2)CC1O (stereo not given in full)")
3.05

A. O=P(O)(O)OP(=O)(O)OP(=O)(O)OCC1O[C@@H](c2cccc(O)c2)CC1O (stereo not given in full)
B. O=P(O)(O)OP(=O)(O)OP(=O)(O)OCC1O[C@@H](c2ccc(O)c(O)c2)CC1O (stereo not given in full)
// query Identify the entry with the smaller pIC50: A or B . Identify your pick by its label.
// result A

###

Experiment: Inhibitory activity against Ex Taq DNA polymerase
Format: nucleic-acid assay, Thermus aquaticus
Parameter Measured: IC50 (µM)

# count of solved cases: 2
>>> endpoint_result("O=P(O)(O)OP(=O)(O)OP(=O)(O)OCC1O[C@@H](c2ccccc2O)CC1O (stereo not given in full)")
1700
>>> endpoint_result("O=P(O)(O)OP(=O)(O)OP(=O)(O)OCC1O[C@@H](c2cccc(O)c2)CC1O (stereo not given in full)")
1900

a. O=P(O)(O)OP(=O)(O)OP(=O)(O)OCC1O[C@@H](c2ccc(O)c(O)c2)CC1O (stereo not given in full)
b. O=P(O)(O)OP(=O)(O)OP(=O)(O)OCC1O[C@@H](c2ccc(O)cc2)CC1O (stereo not given in full)
// query // which entry reports the smaller IC50, a or b ? Return value: the label identifying the chosen record.
// result a
(a: 30 µM, b: 1600 µM)
